Values compiled from PubChem BioAssay (NCI).

Test system: U251 CNS
Assay: NCI tumour cell line growth inhibition, 48 h
Below, each entry is listed with its recorded TGI.

In the examples that follow, each entry is paired with its recorded TGI.
[[record]]
molecule = "CN1C(=O)CC2CCCN2C1=O (stereo unspecified)"
assay_result = "> 100 µM"

[[record]]
molecule = "CC(=O)C1=C(c2ccccc2)N(C2OC(CO)C(O)C(O)C2O)C(S)=C(C#N)C1c1ccc(Cl)cc1 (stereo unspecified)"
assay_result = "35.2 µM"

[[record]]
molecule = "ClCc1ccc(-c2ccc(Cn3cnc4nc(Cl)nc(Cl)c43)cc2)cc1"
assay_result = "11.3 µM"

[[record]]
molecule = "COc1ccc(NC(=O)/C(Cc2nc3ccccc3[nH]c2=O)=N\\O)c(OC)c1"
assay_result = "> 100 µM"

[[record]]
molecule = "CCOC(=O)C(=O)Nc1ccc(C)c(C)c1"
assay_result = "> 100 µM"


Identify measured TGI associated with Cn1c(=O)[nH]c2nccnc2c1=O
> 10 µM
